Assay: Pharmacokinetic evaluation in rats
Assay type: in vivo
Settings: plasma; Rat PK, oral (PO), 10 mg/kg
PARAMETER: half-life
For clarity, give the value followed by its unit.

Lookup: Using the record for O=C(O)c1ccc2nc(CN3CCC(c4ccccc4OCc4ccc(Cl)cc4F)CC3)n(C[C@@H]3CCO3)c2c1 , report its half-life.
Found: 1.09 h

====

Assay: Pharmacokinetic evaluation in rats
Type: in vivo
Settings: plasma; Rat PK, oral (PO), 10 mg/kg
PARAMETER: Cmax (ng/mL)
Give the number; ng/mL is assumed, so skip it.

Lookup: Using the record for O=C(O)c1ccc2nc(CN3CCC(c4ccccc4OCc4ccc(Cl)cc4F)CC3)n(C[C@@H]3CCO3)c2c1 , report its Cmax.
Found: 154

====

Experiment: Grindability test (mortar, XRPD detection)
Format: physicochemical
Conditions: XRPD
Protocol: Grindability test: An appropriate amount of the crystal compound to be tested was placed in a mortar and ground for 2 min and 5 min, followed by XRPD detection.

MOLECULE	Grindability (mortar 5 min), solid form
O=C(O)c1ccc2nc(CN3CCC(c4ccccc4OCc4ccc(Cl)cc4F)CC3)n(C[C@@H]3CCO3)c2c1 [Crystal form I of the compound of formula I]	transformed to amorphous
O=C(O)c1ccc2nc(CN3CCC(c4ccccc4OCc4ccc(Cl)cc4F)CC3)n(C[C@@H]3CCO3)c2c1 [Crystal form III of the compound of formula I]	transformed to amorphous
O=C(O)c1ccc2nc(CN3CCC(c4ccccc4OCc4ccc(Cl)cc4F)CC3)n(C[C@@H]3CCO3)c2c1 [Crystal form II of the compound of formula I]	transformed to amorphous

====

Assay: Pharmacokinetic evaluation in rats
Type: in vivo
Details: in vivo; Rat PK, oral (PO), 10 mg/kg
PARAMETER: half-life (h)
Give the number; h is assumed, so skip it.

Lookup: Using the record for O=C(O)c1ccc2nc(CN3CCC(c4ccccc4OCc4ccc(Cl)cc4F)CC3)n(C[C@@H]3CCO3)c2c1 , report its half-life.
Found: 1.59

====

Test: Purity test after storage in an oven at set temperature (stability)
Assay type: physicochemical
Conditions: Onset (before storage), HPLC
Description: Purity test: The sample to be tested was dissolved in a methanol solution, and the sample purity was measured by HPLC.
Purity, Onset by entry:
For clarity, give the value followed by its unit.

COMPOUND	Purity, Onset
O=C(O)c1ccc2nc(CN3CCC(c4ccccc4OCc4ccc(Cl)cc4F)CC3)n(C[C@@H]3CCO3)c2c1 [Compound of formula I]	99.15%
O=C(O)c1ccc2nc(CN3CCC(c4ccccc4OCc4ccc(Cl)cc4F)CC3)n(C[C@@H]3CCO3)c2c1 [Crystal form I of the compound of formula I]	99.27%
O=C(O)c1ccc2nc(CN3CCC(c4ccccc4OCc4ccc(Cl)cc4F)CC3)n(C[C@@H]3CCO3)c2c1 [Crystal form A of the monohydrate of the compound of formula]	99.95%
O=C(O)c1ccc2nc(CN3CCC(c4ccccc4OCc4ccc(Cl)cc4F)CC3)n(C[C@@H]3CCO3)c2c1 [Crystal form II of the compound of formula I]	99.73%

Field: next compound
Lookup: Using the record for O=C(O)c1ccc2nc(CN3CCC(c4ccccc4OCc4ccc(Cl)cc4F)CC3)n(C[C@@H]3CCO3)c2c1 [Crystal form III of the compound of formula I] , report its Purity, Onset.
Found: 99.25%
